assay: Single ascending dose study NP10679-101, plasma pharmacokinetics; format: in vivo, human; conditions: human, plasma, iv, 50 mg
reported metric: Cmax
Enter the number, and then the unit.

Please report Cmax for the following compound: O=C1CCc2cc(OC[C@H](O)CN3CCN(c4ccc(C(F)(F)F)cc4)CC3)ccc2N1
0.415 µg/mL

----------
assay: Single ascending dose study NP10679-101, plasma pharmacokinetics; type: in vivo, human; settings: human, plasma, iv, 150 mg
reported metric: Cmax (ng/mL)
Please give a number only; it is taken to be in ng/mL.

Specify measured Cmax for O=C1CCc2cc(OC[C@H](O)CN3CCN(c4ccc(C(F)(F)F)cc4)CC3)ccc2N1 [NP10679] .
954

----------
assay: Multiple ascending dose study NP10679-102, plasma pharmacokinetics; type: in vivo; conditions: human, iv, 50 mg, Tmax, MAD, 50 mg IV once daily, day 5
reported metric: Tmax (min)
Respond with the bare value in min.

Indicate the recorded Tmax value for this compound: O=C1CCc2cc(OC[C@H](O)CN3CCN(c4ccc(C(F)(F)F)cc4)CC3)ccc2N1
42

----------
assay: Multiple ascending dose study NP10679-102, plasma pharmacokinetics; assay type: in vivo; details: human, iv, 100 mg, Cmax, MAD, 100 mg IV once daily, day 4
reported metric: Cmax (ng/mL)
State just the number; it will be interpreted in ng/mL.

Note Cmax for the molecule shown: O=C1CCc2cc(OC[C@H](O)CN3CCN(c4ccc(C(F)(F)F)cc4)CC3)ccc2N1
873

----------
assay: Multiple ascending dose study NP10679-102, plasma pharmacokinetics; type: in vivo; settings: human, iv, 100 mg, AUC 0–24, MAD, 100 mg IV once daily, day 3
reported metric: AUC(0-t)
Number plus unit, in that order.

Please report the measured AUC(0-t) for O=C1CCc2cc(OC[C@H](O)CN3CCN(c4ccc(C(F)(F)F)cc4)CC3)ccc2N1 [NP10679]
8710 ng·h/mL

----------
experiment: Single ascending dose study NP10679-101, plasma pharmacokinetics; format: in vivo, human; conditions: human, plasma, iv, 5 mg, Vd, area, mean, SAD, single IV infusion 5 mg
reported metric: Vd

For O=C1CCc2cc(OC[C@H](O)CN3CCN(c4ccc(C(F)(F)F)cc4)CC3)ccc2N1 , write its Vd.
396 L

----------
test: Single ascending dose study NP10679-101, plasma pharmacokinetics; type: in vivo, human; conditions: human, plasma, iv, 15 mg
reported metric: clearance
Give the number first and the unit second.

Identify measured clearance associated with O=C1CCc2cc(OC[C@H](O)CN3CCN(c4ccc(C(F)(F)F)cc4)CC3)ccc2N1 [NP10679]
200 mL/min

----------
assay: Multiple ascending dose study NP10679-102, plasma pharmacokinetics; type: in vivo; details: human, iv, 50 mg, Cmax, MAD, 50 mg IV once daily, day 5
reported metric: Cmax (ng/mL)
Numbers only; they are read as ng/mL.

Item O=C1CCc2cc(OC[C@H](O)CN3CCN(c4ccc(C(F)(F)F)cc4)CC3)ccc2N1 : provide Cmax
394

----------
experiment: Single ascending dose study NP10679-101, plasma pharmacokinetics; assay type: in vivo, human; details: human, plasma, iv, 200 mg, VSS, SAD, single IV infusion 200 mg, mean ± SD
reported metric: Vd
Just the number plus its unit, please.

Input O=C1CCc2cc(OC[C@H](O)CN3CCN(c4ccc(C(F)(F)F)cc4)CC3)ccc2N1 [NP10679] , output reported Vd.
221 L
